# assay-notes: Selectivity index, ratio of EC50 for cytotoxicity against human MRC5 cells to EC50 for antitrypanosomal activity against Trypanosoma cruzi Tulahuen CL2 infected in human MRC5 cells
# Assay type: toxicity, cell-based
# experimental-setup: read-out: Ratio EC50
recorded-metric: selectivity ratio

Below: 4 molecules and their reported selectivity ratio.
> print(dat)
                                smiles.data  result
1  C=Cc1cn([C@@H]2O[C@H](CO)[C@@H](F)[C@H]2O)c2ncnc(N)c12      31
2  Cc1cc(-c2cn([C@@H]3O[C@H](CO)[C@H](F)[C@H]3O)c3ncnc(N)c23)ccc1Cl      28
3  Nc1ncnc2c1c(-c1ccc(Cl)c(Cl)c1)cn2[C@@H]1O[C@H](CO)[C@H](F)[C@H]1O      35
4  Nc1ncnc2c1c(-c1ccc(Cl)cc1)cn2[C@@H]1O[C@H](CO)[C@@H](F)[C@H]1O      23

Each of the following entries comes with a recorded value; kindly state selectivity ratio for each.
1. Nc1ncnc2c1c(-c1ccc(Cl)c(Cl)c1)cn2[C@@H]1O[C@H](CO)[C@@H](F)[C@H]1O
2. Nc1ncnc2c1c(I)cn2[C@@H]1O[C@H](CO)[C@@H](F)[C@H]1O
3. NC(=O)c1cn([C@@H]2O[C@H](CO)[C@@H](F)[C@H]2O)c2ncnc(N)c12
4. Nc1ncnc2c1c(-c1ccccc1)cn2[C@@H]1O[C@H](CO)[C@@H](F)[C@H]1O
5. COc1ncnc2c1ncn2[C@@H]1O[C@H](CO)[C@@H](F)[C@H]1O

stdout:
1. 19
2. 170
3. < 1
4. > 7
5. > 2

###

# assay-notes: Selectivity index, ratio of EC50 for human MRC5 cells to EC50 for antitrypanosomal activity against Trypanosoma brucei rhodesiense
# Type: toxicity
# experimental-setup: read-out: Ratio EC50
Please provide measured selectivity ratio for the entries that follow.

Consider the following items and state reported selectivity ratio for each.
1. C#Cc1cn([C@@H]2O[C@H](CO)[C@@H](F)[C@H]2O)c2ncnc(N)c12
2. COc1ccc(-c2cn([C@@H]3O[C@H](CO)[C@@H](F)[C@H]3O)c3ncnc(N)c23)cc1

stdout:
7
< 1

###

# assay-notes: Selectivity index, ratio of EC50 for human MRC5 cells to EC50 for antitrypanosomal activity against Trypanosoma brucei brucei
# Type: toxicity
# experimental-setup: read-out: Ratio EC50
recorded-metric: selectivity ratio
Answers are plain numbers.

Field: example entries. Status: answers known.
> print(dat)
                                smiles.data  result.number
1  Nc1ncnc2c1c(Cl)cn2[C@@H]1O[C@H](CO)[C@@H](F)[C@H]1O            108
2  Nc1ncnc2c1ncn2[C@@H]1O[C@H](CO)[C@@H](F)[C@H]1O            154
3  CCc1cn([C@@H]2O[C@H](CO)[C@@H](F)[C@H]2O)c2ncnc(N)c12              2

Continue with the compound presented below.
stdin: Could you tell me which selectivity ratio is on file for Nc1ncnc2c1c(-c1ccc(Cl)c(F)c1)cn2[C@@H]1O[C@H](CO)[C@H](F)[C@H]1O ?
stdout: 4

###

# assay-notes: Selectivity index, ratio of EC50 for cytotoxicity against human MRC5 cells to EC50 for antitrypanosomal activity against Trypanosoma cruzi Tulahuen CL2 infected in human MRC5 cells
# Assay type: toxicity, cell-based
# experimental-setup: read-out: Ratio EC50
Please go through the items and note down their selectivity ratio.
Answers are plain numbers.

> print(dat)
                                smiles.data    recorded.metric  result.number
1  Nc1ncnc2c1c(-c1ccc(Cl)cc1)cn2[C@@H]1O[C@H](CO)[C@H](F)[C@H]1O  selectivity ratio            130
2  Nc1nc2c(ncn2[C@@H]2O[C@H](CO)[C@@H](F)[C@H]2O)c(=O)[nH]1  selectivity ratio              1
3  C#Cc1cn([C@@H]2O[C@H](CO)[C@@H](F)[C@H]2O)c2ncnc(N)c12  selectivity ratio              4

Here is another compound to look at.
stdin: Recorded selectivity ratio for Nc1ncnc2c1ncn2[C@@H]1O[C@H](CO)[C@@H](F)[C@H]1O , please?
stdout: 9
